All figures here come from paper PMC8041284.

target: BTK (Homo sapiens, UniProt Q06187); assay: biochemical; settings: read-out: BTK inhibition (%), 0.75 uM BTK, […] probe 3l, 15 min preincubation
Sequence (Q06187 402-655 limits assumed): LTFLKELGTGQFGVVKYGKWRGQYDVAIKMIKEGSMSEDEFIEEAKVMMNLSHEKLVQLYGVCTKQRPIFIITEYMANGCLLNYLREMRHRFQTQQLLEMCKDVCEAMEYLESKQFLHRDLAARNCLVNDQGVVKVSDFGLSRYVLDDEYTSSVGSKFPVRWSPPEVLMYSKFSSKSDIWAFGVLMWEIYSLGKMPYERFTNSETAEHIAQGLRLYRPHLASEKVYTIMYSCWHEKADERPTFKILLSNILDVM
READOUT: inhibition at 10 µM (%)
Write down the numeric answer in % and omit the unit.

Please review the entries below; each comes with its answer.
CNc1cccc(CCOc2ccc3c(c2)CN(CC(F)(F)F)C(=O)[C@H](CC(=O)O)C3)n1 [PCM-0215443]: 8.5
COc1ccc(-c2cnc3c(-c4cccc5ncccc45)cnn3c2)cc1 [PCM-0215297]: -2.3
c1ccc2c(Oc3nc(Nc4ccc(N5CCOCC5)cc4)c4ncn(C5CCCCC5)c4n3)cccc2c1 [PCM-0215227]: 17.9
N#C/C(=C\c1ccc(-c2cc(Cl)ccc2Cl)o1)C(=O)Nc1cccc2ncccc12 [PCM-0215369]: 22.4
CCc1cc(Nc2nccc(-c3c(-c4ccc(OC)c(C(=O)Nc5c(F)cccc5F)c4)nc4ccccn34)n2)c(OC)cc1N1CCC(N2CCN(S(C)(=O)=O)CC2)CC1 [PCM-0095069]: 44.8
CCCCCOC(=O)Nc1nc(=O)n([C@@H]2O[C@H](C)[C@@H](O)[C@H]2O)cc1F [PCM-0094987]: -11.7

# ---- query compound ----
Request: Using BTK (Homo sapiens, UniProt Q06187) as the test system, report measured inhibition at 10 µM of O=C(c1cncc(Br)c1)N1CCC(N2CCCC2)CC1 [PCM-0095791] .
Result: 5.4
